- Assayed System: Polyadenylate-binding protein 1 (Homo sapiens) (UniProt P11940)
- Sequence (P11940 whole entry, looked up): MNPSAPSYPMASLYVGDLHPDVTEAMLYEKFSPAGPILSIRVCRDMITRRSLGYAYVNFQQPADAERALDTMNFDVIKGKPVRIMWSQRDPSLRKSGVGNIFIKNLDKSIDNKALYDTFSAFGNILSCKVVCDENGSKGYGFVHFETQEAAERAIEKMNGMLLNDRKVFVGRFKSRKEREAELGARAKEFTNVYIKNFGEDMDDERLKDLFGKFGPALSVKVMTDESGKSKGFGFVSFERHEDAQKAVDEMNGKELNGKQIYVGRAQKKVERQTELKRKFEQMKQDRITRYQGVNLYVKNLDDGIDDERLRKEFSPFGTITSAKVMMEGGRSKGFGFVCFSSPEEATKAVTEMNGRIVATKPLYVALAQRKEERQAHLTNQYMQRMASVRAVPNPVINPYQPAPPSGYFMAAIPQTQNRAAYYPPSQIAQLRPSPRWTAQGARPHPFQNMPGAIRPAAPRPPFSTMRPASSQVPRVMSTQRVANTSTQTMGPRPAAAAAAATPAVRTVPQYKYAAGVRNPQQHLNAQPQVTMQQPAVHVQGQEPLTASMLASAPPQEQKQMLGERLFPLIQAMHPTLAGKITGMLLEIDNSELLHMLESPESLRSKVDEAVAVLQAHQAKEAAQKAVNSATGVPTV
- Assay Notes: PABP poly(A) RNA binding inhibitors, primary screen, biochemical, fluorescence polarization, uHTS (AID 2014);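 also: calls also rest on retests at 20 µM and on dose response follow-up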
- Run Conditions: at 35 µM, hits give high values
Out of some 290,000 compounds screened, about 3,000 (1%) were called active. Shown is part of a subset that was picked to be rich in actives.
For each entry below, report its inhibition value.

Worked set:
| Molecule | inhibition |
| --- | --- |
| CCCCCCc1cc2cc(-c3nnc(-c4ccccc4)o3)c(=O)oc2cc1O | 102% (active) |
| Nc1nc(SCC(=O)Nc2cc(C(F)(F)F)ccc2Cl)[nH]c(=O)c1NC(=O)c1ccco1 | 2.8% (inactive) |
| Clc1ccc(CN2CCCCCC2)cc1Cl | 17.8% (inactive) |
| Cc1c(CC(=O)NCCCCCC(=O)O)c(=O)oc2cc3occ(-c4ccccc4)c3cc12 | 15.4% (inactive) |
| Cc1ccc(Nc2nc(Cl)c(C=O)s2)cc1 | 40.3% (inactive) |
| COc1cccc(/C=C2\Sc3ccc(C(=O)NCC4CCCO4)cc3N(C)C2=O)c1 (stereo unspecified) | 8.6% (inactive) |
| CCOc1ccccc1NC(=O)Cc1cccs1 | 4.2% (inactive) |
| O=C1CCCC2=C1C(c1cccs1)CC(=O)N2c1ccc(F)cc1 (stereo unspecified) | -1.2% (inactive) |

Hi, could you look up inhibition for each item in my list?
1. CN(C)CCCn1c(=O)n(Cc2ccccc2)c(=O)c2c3c(sc21)CCCCC3
2. O=C(Nc1ncc2c(n1)CC(c1ccco1)CC2=O)c1ccc(Cl)cc1 (stereo unspecified)
3. CCOC(=O)C1=C(CCc2ccccc2)NC(=O)NC1c1ccc2ccccc2c1 (stereo unspecified)

["-5.5% (inactive)", "65.9% (active)", "-1% (inactive)"]
